# METHOD SUMMARY: NCI Yeast Anticancer Drug Screen. Data for the rad50 strain (AID 155);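 note: 0% = growth of vehicle-only cultures of the same strain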
# CONDITION PARAMETERS: S. cerevisiae rad50 strain growth inhibition; at 50.0 µM; active compounds read high
About 79,000 compounds went through this panel and 15% of them were active in at least one assay; those are over-represented in the sample as a whole.
Listing of entries alongside the reported growth inhibition.
TEST READOUT: growth inhibition (%)

[
  {
    "COMPOUND": "COc1ccc(NC(=O)C(=O)NNC(=O)c2sc(NNC(C)=O)nc2C)c([N+](=O)[O-])c1",
    "READING": 27.3
  },
  {
    "COMPOUND": "CC(=O)c1cc2c(cc1C)CCCC2(C)C",
    "READING": 0.95
  },
  {
    "COMPOUND": "C/C(=N\\NC(=O)c1ccncc1)c1ccc(Cl)cc1Cl",
    "READING": 5.85
  },
  {
    "COMPOUND": "CN(C)/C=N/c1nc2ncn(CCOC(=O)c3ccccc3)c2c(=O)[nH]1",
    "READING": -20.6
  },
  {
    "COMPOUND": "CC(C)/C=C(/CC(C)C)C(CCC(=O)Nc1ccccc1)C(=O)Nc1ccccc1 (configuration not stated)",
    "READING": 7.9
  },
  {
    "COMPOUND": "CC(=O)Oc1cc2c(cc1OC(C)=O)C1(C)CCC2(C)c2cc(OC(C)=O)c(OC(C)=O)cc21",
    "READING": 1.6
  },
  {
    "COMPOUND": "CC(C)(SC(=N)N)B(O)O",
    "READING": -3.2
  }
]
